test system: Plasmodium yoelii nigeriensis; assay: Antimalarial activity against multidrug-resistant Plasmodium yoelii nigeriensis in mice (Mus musculus) at 24 mg/kg/day peroral dose after 4 days; type: functional; settings: route oral

# compound, endpoint-unit, Activity
rows = [
    ("C=C(c1ccc2ccccc2c1)C1COC2(CCC(=CC(=O)OCC)CC2)OO1 (stereo not given)", "%", 100),
    ("C=C(c1ccccc1)C1COC2(CCC(=CC(=O)OCC)CC2)OO1 (stereo not given)", "%", 99),
    ("C=C(c1ccc(Cl)cc1)C1COC2(CCC(=CC(=O)OCC)CC2)OO1 (stereo not given)", "%", 100),
    ("CCO[C@H]1O[C@@H]2O[C@@]3(C)CC[C@H]4[C@H](C)CC[C@@H]([C@H]1C)[C@@]24OO3", "%", 100),
    ("C=C(c1ccc(C)cc1)C1COC2(CCC(=CC(=O)OCC)CC2)OO1 (stereo not given)", "%", 100),
]
